# system: HIV1 protease (Human immunodeficiency virus type 1 group M subtype B, UniProt P04585)
# protocol: Test 3: inhibition of proteolytic activity of HIV-1 protease by scintillation proximity assay (SPA)
# Type: biochemical
# conditions: SPA; room temperature, 40 minutes; read-out: Enzyme Assays (SPA) IC50
measured parameter: IC50

Value sought for every listed compound: IC50.
1. CC(C)(C)NC(=O)c1c(OC[C@@H](O)[C@H](Cc2ccccc2)NC(=O)[C@H](CC(N)=O)NC(=O)c2ccc3ccccc3n2)ccc2ccccc12 [Compound 10]
2. CC(C)(C)NC(=O)c1ccccc1OC[C@@H](O)[C@H](Cc1ccccc1)NC(=O)[C@H](CC(N)=O)NC(=O)c1nc2ccccc2nc1O [Compound 64]
3. CC(C)(C)NC(=O)c1ccc2ccccc2c1OC[C@@H](O)[C@H](Cc1ccccc1)NC(=O)[C@H](CC(N)=O)NC(=O)c1ccc2ccccc2n1 [Compound 12]
4. CC(C)(C)NC(=O)c1ccc(SC[C@@H](O)[C@H](Cc2ccccc2)NC(=O)[C@H](CC(N)=O)NC(=O)c2ccc3ccccc3n2)cc1 [Compound 24]
5. CC(C)(C)NC(=O)c1ccccc1OC[C@@H](O)[C@H](Cc1ccccc1)NC(=O)[C@H](CC(N)=O)NC(=O)c1cnnc2ccccc12 [Compound 66]

// result
110 nM
> 500 nM
230 nM
> 200 nM
124 nM

// query Supply IC50 measured with HIV1 protease (Human immunodeficiency virus type 1 group M subtype B, UniProt P04585) for CN(C)C(=O)C[C@H](NC(=O)c1ccc2ccccc2n1)C(=O)N[C@@H](Cc1ccccc1)[C@H](O)CSc1ccccc1C(=O)NC(C)(C)C [Compound 42] .
// result > 200 nM
